biological target: UniProt:Q16539; test: Assessment of Activity of MAPK11, MAPK12, MAPK13 and MAPK14 Kinases

{"SUBSTANCE_SMILES": "Cc1ccc(C(N)=O)cc1Nc1cc(=O)n(C)c2c1cnn2-c1cc(F)ccc1F", "IC50": "< 25 nM"}
{"SUBSTANCE_SMILES": "Cn1c(=O)cc(Nc2cc(C(=O)NC3CC3)ccc2Cl)c2cnn(-c3c(F)cccc3F)c21", "IC50": "< 25 nM"}
{"SUBSTANCE_SMILES": "CCn1c(=O)cc(Nc2cc(C(=O)NC3CC3)ccc2Cl)c2cnn(-c3ccc(F)cc3F)c21", "IC50": "1.2 nM"}
{"SUBSTANCE_SMILES": "Cn1c(=O)cc(Nc2cc(C(=O)NC3CC3)ccc2Cl)c2cnn(-c3cc(F)ccc3F)c21", "IC50": "< 25 nM"}
{"SUBSTANCE_SMILES": "Cc1ccc(C(=O)NC2CC2)cc1Oc1cc(=O)n(C)c2c1cnn2-c1cc(F)ccc1F", "IC50": "< 25 nM"}
{"SUBSTANCE_SMILES": "CCn1c(=O)cc(Oc2cc(C(=O)NC3CC3)ccc2C)c2cnn(-c3ccc(F)cc3)c21", "IC50": "< 25 nM"}
{"SUBSTANCE_SMILES": "Cc1ccc(C(=O)NC2CC2)cc1Oc1cc(=O)n(C)c2c1cnn2-c1c(F)cccc1F", "IC50": "< 25 nM"}
{"SUBSTANCE_SMILES": "Cc1ccc(C(=O)NC2CC2)cc1Nc1cc(=O)n(C)c2c1cnn2-c1cc(F)ccc1F", "IC50": "< 25 nM"}
{"SUBSTANCE_SMILES": "Cc1ccc(C(=O)NC2CC2)cc1Oc1cc(=O)n(C)c2c1cnn2-c1cccc(F)c1", "IC50": "< 25 nM"}
{"SUBSTANCE_SMILES": "Cc1ccc(C(=O)NC2CC2)cc1Nc1cc(=O)n(C)c2c1cnn2-c1c(F)cccc1F", "IC50": "< 25 nM"}
{"SUBSTANCE_SMILES": "Cc1ccc(C(N)=O)cc1Nc1cc(=O)n(C)c2c1cnn2-c1ccc(F)cc1F", "IC50": "< 25 nM"}
{"SUBSTANCE_SMILES": "Cn1c(=O)cc(Nc2cc(C(=O)NC3CC3)ccc2F)c2cnn(-c3ccc(F)cc3F)c21", "IC50": "< 25 nM"}
{"SUBSTANCE_SMILES": "CONC(=O)c1ccc(C)c(Nc2cc(=O)n(C)c3c2cnn3-c2ccc(F)cc2F)c1", "IC50": "1.6 nM"}

* * *

IC50 by entry:
target: UniProtKB Q16539; test: Assessment of Activity of MAPK11, MAPK12, MAPK13 and MAPK14 Kinases
ASSAY_ENDPOINT: IC50 (nM)

{"SUBSTANCE_SMILES": "Cc1ccc(C(=O)NC2CC2)cc1Nc1cc(=O)n(C)c2c1cnn2-c1cccc(F)c1", "RELATION_QUALIFIER": "<", "EXPERIMENTAL_VALUE": 25}
{"SUBSTANCE_SMILES": "CCn1c(=O)cc(Nc2cc(C(=O)NC3CC3)ccc2Cl)c2cnn(-c3ccc(F)cc3)c21", "RELATION_QUALIFIER": "=", "EXPERIMENTAL_VALUE": 1.7}
{"SUBSTANCE_SMILES": "Cn1c(=O)cc(Nc2cc(C(=O)NC3CC3)ccc2Cl)c2cnn(-c3ccc(F)cc3)c21", "RELATION_QUALIFIER": "=", "EXPERIMENTAL_VALUE": 2.1}
{"SUBSTANCE_SMILES": "Cc1ccc(C(=O)NC2CC2)cc1Oc1cc(=O)n(C)c2c1cnn2-c1ccc(F)cc1F", "RELATION_QUALIFIER": "<", "EXPERIMENTAL_VALUE": 25}
{"SUBSTANCE_SMILES": "CCn1c(=O)cc(Nc2cc(C(=O)NC3CC3)ccc2C)c2cnn(-c3ccc(F)cc3)c21", "RELATION_QUALIFIER": "<", "EXPERIMENTAL_VALUE": 25}
